# credit: the supplement of paper PMC9170038

Tested on: MS2 coat protein
assay: apparent KD of MS2 coat protein; higher = weaker reporter binding
experimental.setup: Eterna round: R107; input ligand: arginine 13.2 mM
property.measured: apparent KD of MS2 coat protein (nM)
Give the number; nM is assumed, so skip it.

polymer.sequence | study.system | property.measured | value.reported
AUUUUCAUGGUCAUAUAUAUAUCUUCAGAUACCAGACUAUAUUAAGUCCCUUGGCAGCUGUUACAUGAGGAUCACCCAUGUUAUA [JR_ExcTheophyA_Sub013] | MS2 coat protein | apparent KD of MS2 coat protein | 40.1

**Query** Please report the recorded apparent KD of MS2 coat protein for AUAAAUAAUAAAUAUAAUAAAGUGGGUGAACGAGGACCGGUACGGCCGCCACUCGGACAUGAGGAUCACCCAUGUCCAUGUGAAA [AstrosExtTry#3] .
**Result** 9.94

**Query** Please report the recorded apparent KD of MS2 coat protein for UGUAUGUGAUCUGAUACCAGUCCAACUGGUAAAGCGUGAGGAUCACCCAUGCAAAAUUGGGACCCUUGGCAGCAGAUCGCAUACU .
**Result** 48.6

====

Test system: MS2 coat protein
assay: apparent KD of MS2 coat protein, switch OFF state (with FMN for OFF switches, without FMN for ON switches); designed switch direction (-1 OFF switch, 1 ON switch): 1; higher = weaker reporter binding
experimental.setup: FMN input: 0 or 200 uM; Eterna round: R93 (includes R88 designs)
property.measured: apparent KD of MS2 coat protein (µM)
Give the number; µM is assumed, so skip it.

polymer.sequence | unit | apparent KD of MS2 coat protein
AAAAAACAUGAGGAUCACCCAUGUGAAAAAAUCGCAGGAUAUCCCUUUUUUAAAUGGGAGGGAGAAGGGUGAAAAA [Nob's Hobby 15 - Jieux - Same State 1] | µM | 0.0847

**Query** Please report the recorded apparent KD of MS2 coat protein for AAAAAAAAAAGUGAGGAUAUGUGAUCGGUGACAUGAGGAUCACCCAUGUGAGGCCUUCGGGCCAAGCAGAAGGUAUAAAAAAAAA [Same State 2-VII] .
**Result** 0.0294

**Query** Please report the recorded apparent KD of MS2 coat protein for GGAUACAUACAGAAGGAUAUGAGAACAAAGACAUGAGGAUCACCCAUGUACAAAAGGUGGAACAAUCAGAAGGUCUAAACAACAAA [Club and Ball] .
**Result** 0.0521

**Query** Please report the recorded apparent KD of MS2 coat protein for GUAGAACAUGAGGAUCACCCAUGUGAAGACGCAUGAGGAUAUAUCCGUACAUAGCAUACGAUAGAAGGCAUGAUAA [JR_SS001_Sub1704] .
**Result** 0.0906

**Query** Please report the recorded apparent KD of MS2 coat protein for AAAAAAAAAAGCUAGGAUAUCCAAAAAAAAACAUGAGGAUCACCCAUGUAAAAAAAAAAAAAAUGGGAGAAGGAGCAAAAAAAAAA [Mod of Eli] .
**Result** 0.0396

**Query** Please report the recorded apparent KD of MS2 coat protein for AAAAAACAUGAGGAUCACCCAUGUAAUAAAACGUCAGGAUAUUGAUUUUAUUAUUUAUUGCAAGAAGGGACAAAAA [Same State 1 - Omei 2] .
**Result** 0.0403

**Query** Please report the recorded apparent KD of MS2 coat protein for AAUAUAUUAAGUGAGGAUAUCAAGAAAAAAACAUGAGGAUCACCCAUGUGGGAAACACAAUAGGGUGAGAAGGUACUUAAUAUAU [Samwise Clockwise 18 - Jieux - Same State 2] .
**Result** 0.00808

**Query** Please report the recorded apparent KD of MS2 coat protein for AUAUAUAUAAGACAGGAUAUCCGAAAGUAAACAUGAGGAUCACCCAUGUAAAGAAAGAAACUCAUGGAGAAGGGUCAAUAUAUAU [Mat - Same State 2 - Tesla mod - D84] .
**Result** 0.0656

**Query** Please report the recorded apparent KD of MS2 coat protein for GGAGUACAUGAGGAUCACCCAUGUUGGAACGAAGUAGGAUAUGUACAAUAUUAAAUAAAAACAGAAGGACUAAUAA [Meow] .
**Result** 0.0551

**Query** Please report the recorded apparent KD of MS2 coat protein for AAAUAUAAAAGAUAGGAUAUACUAAAAUAAACAUGAGGAUCACCCAUGUAAAAAAAAAAACUCAUGUAGAAGGAUCAAAUAUAAA [ss2 8th] .
**Result** 0.0381
